List of (αSN1-1)/(αSN1), 24 hours, 11° C. values.
MEASURED ON: T1, alpha-s1 casein from Bos taurus
T1 chain: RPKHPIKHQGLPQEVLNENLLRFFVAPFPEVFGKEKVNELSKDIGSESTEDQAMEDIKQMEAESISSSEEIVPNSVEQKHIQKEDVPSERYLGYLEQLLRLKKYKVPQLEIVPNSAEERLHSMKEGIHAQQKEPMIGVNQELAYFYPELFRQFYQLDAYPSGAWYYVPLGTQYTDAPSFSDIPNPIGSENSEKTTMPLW

* camel chymosin variant #162 (L295R) (protein) GKVAREPLTSYLDSQYFGKIYIGTPPQEFTVVFDTGSSDLWVPSIYCKSNVCKNHHRFDPRKSSTFRNLGKPLSIHYGTGSMEGFLGYDTVTVSNIVDPNQTVGLSTEQPGEVFTYSEFDGILGLAYPSLASEYSVPVFDNMMDRHLVARDLFSVYMDRNGQGSMLTLGAIDPSYYTGSLHWVPVTLQQYWQFTVDSVTINGVAVACVGGCQAILDTGTSVLFGPSSDILKIQMAIGATENRYGEFDVNCGNLRSMPTVVFEINGRDYPLSPSAYTSKDQGFCTSGFQGDNNSERWILGDVFIREYYSVFDRANNRVGLAKAI | 1.9
* camel chymosin variant #141 (F223N) (protein) GKVAREPLTSYLDSQYFGKIYIGTPPQEFTVVFDTGSSDLWVPSIYCKSNVCKNHHRFDPRKSSTFRNLGKPLSIHYGTGSMEGFLGYDTVTVSNIVDPNQTVGLSTEQPGEVFTYSEFDGILGLAYPSLASEYSVPVFDNMMDRHLVARDLFSVYMDRNGQGSMLTLGAIDPSYYTGSLHWVPVTLQQYWQFTVDSVTINGVAVACVGGCQAILDTGTSVLNGPSSDILKIQMAIGATENRYGEFDVNCGNLRSMPTVVFEINGRDYPLSPSAYTSKDQGFCTSGFQGDNNSELWILGDVFIREYYSVFDRANNRVGLAKAI | 2
* camel chymosin variant #156 (D290S) (protein) GKVAREPLTSYLDSQYFGKIYIGTPPQEFTVVFDTGSSDLWVPSIYCKSNVCKNHHRFDPRKSSTFRNLGKPLSIHYGTGSMEGFLGYDTVTVSNIVDPNQTVGLSTEQPGEVFTYSEFDGILGLAYPSLASEYSVPVFDNMMDRHLVARDLFSVYMDRNGQGSMLTLGAIDPSYYTGSLHWVPVTLQQYWQFTVDSVTINGVAVACVGGCQAILDTGTSVLFGPSSDILKIQMAIGATENRYGEFDVNCGNLRSMPTVVFEINGRDYPLSPSAYTSKDQGFCTSGFQGSNNSELWILGDVFIREYYSVFDRANNRVGLAKAI | 1.9

Kindly review the next protein as well.
Q: Query (protein): camel chymosin variant #150 (Q288S) (protein) GKVAREPLTSYLDSQYFGKIYIGTPPQEFTVVFDTGSSDLWVPSIYCKSNVCKNHHRFDPRKSSTFRNLGKPLSIHYGTGSMEGFLGYDTVTVSNIVDPNQTVGLSTEQPGEVFTYSEFDGILGLAYPSLASEYSVPVFDNMMDRHLVARDLFSVYMDRNGQGSMLTLGAIDPSYYTGSLHWVPVTLQQYWQFTVDSVTINGVAVACVGGCQAILDTGTSVLFGPSSDILKIQMAIGATENRYGEFDVNCGNLRSMPTVVFEINGRDYPLSPSAYTSKDQGFCTSGFSGDNNSELWILGDVFIREYYSVFDRANNRVGLAKAI ; field requested: (αSN1-1)/(αSN1), 24 hours, 11° C.
Result: 1.3
